# STUDY TARGET: Apelin receptor (Homo sapiens)
# Sequence (whole entry): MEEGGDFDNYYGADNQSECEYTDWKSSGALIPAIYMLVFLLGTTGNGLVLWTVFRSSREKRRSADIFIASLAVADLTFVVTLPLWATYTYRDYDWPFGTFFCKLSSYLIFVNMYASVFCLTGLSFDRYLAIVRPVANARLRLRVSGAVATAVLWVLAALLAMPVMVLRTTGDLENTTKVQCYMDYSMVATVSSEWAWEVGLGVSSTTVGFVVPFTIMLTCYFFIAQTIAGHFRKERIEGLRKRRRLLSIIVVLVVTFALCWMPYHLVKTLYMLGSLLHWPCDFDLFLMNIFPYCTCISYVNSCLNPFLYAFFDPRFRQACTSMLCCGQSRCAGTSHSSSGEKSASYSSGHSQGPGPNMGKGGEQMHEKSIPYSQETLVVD
# TEST METHOD NOTES: Agonist activity at human APJ expressed in HEK293 cell membrane assessed as maximal efficacy for recruitment of beta-arrestin2 to receptor by BRET-based beta-arrestin2 assay relative to control
# Assay type: functional
# TEST SETTINGS: filed as agonist
Threshold check on Emax: at or above 80% gives label 1, strictly below gives label 0.

SMILES REPRESENTATION	STUDY TARGET	LABEL
CC(C)C[C@@H]1NC(=O)[C@H](CCCNC(=N)N)NC(=O)[C@@H](N)C/C=C\C[C@@H](C(=O)N[C@@H](CCCCN)C(=O)NCC(=O)N2CCC[C@H]2C(=O)N[C@H](Cc2ccc3ccccc3c2)C(=O)O)NC(=O)[C@H](CO)NC1=O	Apelin receptor (Homo sapiens)	label 0
CCCC[C@H](NC(=O)[C@@H]1CCCN1C(=O)CNC(=O)[C@H](CCCCN)NC(=O)[C@@H]1C/C=C\C[C@H](NC(=O)[C@H](CCCNC(=N)N)NC(=O)[C@@H]2CCC(=O)N2)C(=O)N[C@@H](CCCNC(=N)N)C(=O)N[C@@H](CC(C)C)C(=O)N[C@@H](CO)C(=O)N1)C(=O)N1CCC[C@H]1C(=O)N[C@@H](Cc1ccccc1)C(=O)O	Apelin receptor (Homo sapiens)	label 1
CCCC[C@H](NC(=O)[C@@H]1CCCN1C(=O)CNC(=O)[C@H](CCCCN)NC(=O)[C@@H]1CCCC[C@H](NC(=O)[C@H](CCCNC(=N)N)NC(=O)[C@@H]2CCC(=O)N2)C(=O)N[C@@H](CCCNC(=N)N)C(=O)N[C@@H](CC(C)C)C(=O)N[C@@H](CO)C(=O)N1)C(=O)N1CCC[C@H]1C(=O)N[C@@H](Cc1ccccc1)C(=O)O	Apelin receptor (Homo sapiens)	label 0
CC(C)C[C@@H]1NC(=O)[C@H](CCCNC(=N)N)NC(=O)[C@@H](N)C/C=C\C[C@@H](C(=O)N[C@@H](CCCCN)C(=O)NCC(=O)N2CCC[C@H]2C(=O)N[C@H](Cc2ccc(O)cc2)C(=O)O)NC(=O)[C@H](CO)NC1=O	Apelin receptor (Homo sapiens)	label 0
CC(C)C[C@@H]1NC(=O)[C@H](CCCNC(=N)N)NC(=O)[C@@H](N)C/C=C\C[C@@H](C(=O)N[C@@H](CCCCN)C(=O)NCC(=O)N2CCC[C@H]2C(=O)N[C@H](Cc2cccc3ccccc23)C(=O)O)NC(=O)[C@H](CO)NC1=O	Apelin receptor (Homo sapiens)	label 0
CCCC[C@H](NC(=O)[C@@H]1CCCN1C(=O)CNC(=O)[C@H](CCCCN)NC(=O)[C@@H]1C/C=C\C[C@H](N)C(=O)N[C@@H](CCCNC(=N)N)C(=O)N[C@@H](CC(C)C)C(=O)N[C@@H](CO)C(=O)N1)C(=O)N1CCC[C@H]1C(=O)N[C@@H](Cc1ccccc1)C(=O)O	Apelin receptor (Homo sapiens)	label 1

* * *

# STUDY TARGET: Apelin receptor (Homo sapiens) (UniProt P35414)
# Sequence (whole entry): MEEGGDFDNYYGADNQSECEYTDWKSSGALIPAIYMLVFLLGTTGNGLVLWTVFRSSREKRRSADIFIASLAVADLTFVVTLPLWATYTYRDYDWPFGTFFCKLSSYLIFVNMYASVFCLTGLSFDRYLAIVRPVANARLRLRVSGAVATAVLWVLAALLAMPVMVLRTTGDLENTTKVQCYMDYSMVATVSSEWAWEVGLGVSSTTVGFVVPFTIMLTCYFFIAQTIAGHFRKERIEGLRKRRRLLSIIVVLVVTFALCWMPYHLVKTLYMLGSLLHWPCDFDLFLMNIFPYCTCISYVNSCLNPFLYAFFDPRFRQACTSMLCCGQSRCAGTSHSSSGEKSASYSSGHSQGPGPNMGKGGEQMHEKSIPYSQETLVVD
# TEST METHOD NOTES: Agonist activity at human APJ expressed in HEK293 cells assessed as maximal efficacy for dissociation of G alphai1 from the G beta gamma subunit by BRET-based G protein dissociation assay relative to control
# Assay type: functional, cell-based
# TEST SETTINGS: filed as agonist

SMILES REPRESENTATION	STUDY TARGET	UNITS OF MEASURE	Emax
CC(C)C[C@@H]1NC(=O)[C@H](CCCNC(=N)N)NC(=O)[C@@H](N)C/C=C\C[C@@H](C(=O)N[C@@H](CCCCN)C(=O)NCC(=O)N2CCC[C@H]2C(=O)N[C@H](Cc2ccc(O)cc2)C(=O)O)NC(=O)[C@H](CO)NC1=O	Apelin receptor (Homo sapiens) (UniProt P35414)	%	100
CC(C)C[C@@H]1NC(=O)[C@H](CCCNC(=N)N)NC(=O)[C@@H](N)C/C=C\C[C@@H](C(=O)N[C@@H](CCCCN)C(=O)NCC(=O)N2CCC[C@H]2C(=O)N[C@H](Cc2cccc3ccccc23)C(=O)O)NC(=O)[C@H](CO)NC1=O	Apelin receptor (Homo sapiens) (UniProt P35414)	%	103
CCCC[C@H](NC(=O)[C@@H]1CCCN1C(=O)CNC(=O)[C@H](CCCCN)NC(=O)[C@@H]1CCN(S(=O)(=O)c2ccccc2[N+](=O)[O-])C/C=C/C[C@H](NC(=O)[C@H](CCCNC(=N)N)NC(=O)[C@@H]2CCC(=O)N2)C(=O)N[C@@H](CCCNC(=N)N)C(=O)N[C@@H](CC(C)C)C(=O)N[C@@H](CO)C(=O)N1)C(=O)N1CCC[C@H]1C(=O)N[C@@H](Cc1ccccc1)C(=O)O	Apelin receptor (Homo sapiens) (UniProt P35414)	%	102
CCCC[C@H](NC(=O)[C@@H]1CCCN1C(=O)CNC(=O)[C@H](CCCCN)NC(=O)[C@@H]1CCCC[C@H](NC(=O)[C@H](CCCNC(=N)N)NC(=O)[C@@H]2CCC(=O)N2)C(=O)N[C@@H](CCCNC(=N)N)C(=O)N[C@@H](CC(C)C)C(=O)N[C@@H](CO)C(=O)N1)C(=O)N1CCC[C@H]1C(=O)N[C@@H](Cc1ccccc1)C(=O)O	Apelin receptor (Homo sapiens) (UniProt P35414)	%	102
CC(C)C[C@@H]1NC(=O)[C@H](CCCNC(=N)N)NC(=O)[C@@H](N)C/C=C\C[C@@H](C(=O)N[C@@H](CCCCN)C(=O)NCC(=O)N2CCC[C@H]2C(=O)N[C@H](Cc2ccc(OCc3ccccc3)cc2)C(=O)O)NC(=O)[C@H](CO)NC1=O	Apelin receptor (Homo sapiens) (UniProt P35414)	%	104
CC(C)C[C@@H]1NC(=O)[C@H](CCCNC(=N)N)NC(=O)[C@@H](N)C/C=C\C[C@@H](C(=O)N[C@@H](CCCCN)C(=O)NCC(=O)N2CCC[C@H]2C(=O)N[C@H](Cc2ccc3ccccc3c2)C(=O)O)NC(=O)[C@H](CO)NC1=O	Apelin receptor (Homo sapiens) (UniProt P35414)	%	105
